- assayedTarget: T1, HLA-DR molecule encoded by the allele DRB4*0101 (human)
- T1 chain 1: not shown
- T1 chain 2: not shown
- assayRemarks: competition ELISA vs biotinylated E2/E168
pIC50: −log10 of the molar value.

binder: LEKHGAITSSNTAATNAACAWLEAQEEEEVGFPVT (modifications not checked) [Nef3 peptide (positions 37-71 of the HIV-1 Nef protein, Bru strain), P03406 37-71]
pIC50: 5.10

binder: MGGKWSKSSVVGWPTVRERMRRAEPAADGVGAASRD (modifications not checked) [Nef1 peptide (positions 1-36 of the HIV-1 Nef protein, Bru strain), P03406 1-36]
pIC50: 5.60

binder: LTFGWCYKLVPVEPDKVEEANKGENTSLLHPV (modifications not checked) [Nef10 peptide (positions 137-168 of the HIV-1 Nef protein, Bru strain), P03406 137-168]
pIC50: 7.26

binder: DPEREVLEWRFDSRLA (modifications not checked) [Nef12 peptide (positions 175-190 of the HIV-1 Nef protein, Bru strain), P03406 175-190]
pIC50: 6.56
